# Measured Target: T1, human MSLN-R3 protein (human, UniProt Q13421 487-598)
# T1 construct: also called hMSLN-R3
# T1 sequence (Q13421 495-606, form in doubt): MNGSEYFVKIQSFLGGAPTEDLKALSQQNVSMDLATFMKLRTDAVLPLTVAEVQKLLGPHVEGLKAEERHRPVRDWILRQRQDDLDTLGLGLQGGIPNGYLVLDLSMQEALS
# Experiment: ELISA on coated antigen, antibody 100 nM

Binder	OD450, OD450
F7.44.20-H12 (scFv, not shown: small tags and cut ends, also called S009-F7.44.20 humanized antibody VH2 + VL4) scFv: EVQLVQSGAEVKKPGASVKVSCKASGYTFTDYNMDWVRQAPGQGLEWMGDINPSTGGTIYNQKFNGRVTMTEDKSASTVYMELSSLRSEDTAVYYCARRRIGTGYFDVWGQGTTVTVSSGGGGSGGGGSGGGGSEIVLTQSPATLSLSPGERATLSCSASSSVISSYLSWYQQKPGSSPRLLIYRTSNLASGIPARFSGSGSGTDYTLTISSLEPEDFAVYYCHQWSSFPYTFGGGTKVEIK	2.44
F7.44.20-H7 (scFv, not shown: small tags and cut ends, also called S009-F7.44.20 humanized antibody VH1a + VL3) scFv: EVQLVQSGAEVKKPGASVKVSCKASGYTFTDYNMDWVRQAPGQGLEWMGDINPSTGGTIYNQKFQGRVTMTEDKSTSTVYMELSSLRSEDTAVYYCARRRIGTGYFDVWGQGTTVTVSSGGGGSGGGGSGGGGSEIVLTQSPATLSLSPGERATLSCSASSSVISSYLSWYQQKPGQSPRLLIYRTSNLASGIPARFSGSGSGTDYTLTISSLEPEDFAVYYCHQWSSFPYTFGGGTKVEIK	2.1
F7.44.20 (scFv, not shown: small tags and cut ends, also called S009-F7.44.20 (parental variable regions, in the humanized-antibody ELISA)) scFv: EVQLQQSGPELVKPGASVKIPCKASGYTFTDYNMDWVKQSHGKSLEWIGDINPSTGGTIYNQKFNGKATLTEDKSASTVYMEFRSLTSDDTAVYYCARRRIGTGYFDVWGTGTTVTVSSGGGGSGGGGSGGGGSQIVLTQSPALMSASPGEKVTLTCSASSSVISSYLSWYQQKPGSSPKLLIYRTSNLASGVPARFSGSGSGTSYSLTISSMEAEDAASYFCHQWSSFPYTFGGGTKLEIK	1.96
F7.44.20-H16 (scFv, not shown: small tags and cut ends, also called S009-F7.44.20 humanized antibody VH2a + VL4) scFv: EVQLVQSGAEVKKPGASVKVSCKASGYTFTDYNMDWVRQAPGQGLEWMGDINPSTGGTIYNQKFSGRVTMTEDKSASTVYMELSSLRSEDTAVYYCARRRIGTGYFDVWGQGTTVTVSSGGGGSGGGGSGGGGSEIVLTQSPATLSLSPGERATLSCSASSSVISSYLSWYQQKPGSSPRLLIYRTSNLASGIPARFSGSGSGTDYTLTISSLEPEDFAVYYCHQWSSFPYTFGGGTKVEIK	1.8
